SUBJECT_OF_TEST: MAP3K1 (human)
PROTOCOL_DESCRIPTION: KINOMEscan competition binding
CONDITIONS_USED: compound 10.0 µM
ENDPOINT: kinase still bound, per cent of control (%)
Give the value in % but do not write % after it.

Here's what some known entries look like.
MOLECULAR_STRING	kinase still bound, per cent of control (%)
C=CC(=O)Nc1cccc(Nc2nc(N[C@H]3CC[C@H](N(C)C)CC3)nc3c2ncn3C(C)C)c1	100
N#Cc1c(NC(=O)c2cccc3ccccc23)sc2c1CCCC2	59
O=C1Nc2ccc(I)cc2/C1=C/c1cc(Br)c(O)c(Br)c1	84
COc1cc(C(=O)NC2CCN(C)CC2)ccc1Nc1ncc2c(n1)N(C1CCCC1)CCC(=O)N2C(C)C	100
O=C(O)c1ccc(Nc2ncc3c(n2)-c2ccc(Cl)cc2C(c2c(F)cccc2F)=NC3)cc1	100

Query `O=C(NOC[C@H](O)CO)c1ccc(F)c(F)c1Nc1ccc(I)cc1F` on MAP3K1 (human); kinase still bound, per cent of control returned: 54

Query `C[C@@H](Oc1cc(-n2cnc3ccc(CN4CCN(C)CC4)cc32)sc1C(N)=O)c1ccccc1C(F)(F)F` on MAP3K1 (human); kinase still bound, per cent of control returned: 3.7

Query `Cn1c(=O)n(-c2ccc(C(C)(C)C#N)cc2)c2c3cc(-c4cnc5ccccc5c4)ccc3ncc21` on MAP3K1 (human); kinase still bound, per cent of control returned: 100

Query `O=C(NC1CC1)c1cccc(-c2ccc3c(NC(=O)C4CC4)n[nH]c3c2)c1` on MAP3K1 (human); kinase still bound, per cent of control returned: 100

Query `Cc1cc([C@@H](C)Nc2ccccc2C(=O)O)c2nc(N3CCOCC3)cc(=O)n2c1` on MAP3K1 (human); kinase still bound, per cent of control returned: 90

Query `CCN1CCN(Cc2ccc(Nc3ncc4c(n3)N(C)c3ccccc3C(=O)N4C)cc2C(F)(F)F)CC1` on MAP3K1 (human); kinase still bound, per cent of control returned: 55

Query `COc1cc(N2CCN(C)CC2)ccc1Nc1nc(N)c(C(=O)c2c(Cl)cccc2Cl)s1` on MAP3K1 (human); kinase still bound, per cent of control returned: 100

====

SUBJECT_OF_TEST: NEK3 (human)
PROTOCOL_DESCRIPTION: KINOMEscan competition binding
CONDITIONS_USED: compound 10.0 µM
Readings of kinase still bound, per cent of control for the listed compounds
Give the value in % but do not write % after it.

Here's what some known entries look like.
MOLECULAR_STRING	ENDPOINT	UNITS_OF_MEASURE	READOUT_VALUE
O=C(NC1CC1)c1cccc(-c2ccc3c(NC(=O)C4CC4)n[nH]c3c2)c1	kinase still bound, per cent of control	%	75
C=CC(=O)Nc1cccc(Nc2nc(N[C@H]3CC[C@H](N(C)C)CC3)nc3c2ncn3C(C)C)c1	kinase still bound, per cent of control	%	60
N#Cc1c(NC(=O)c2cccc3ccccc23)sc2c1CCCC2	kinase still bound, per cent of control	%	100

`CCOc1cc2ncc(C#N)c(Nc3ccc(OCc4ccccn4)c(Cl)c3)c2cc1NC(=O)/C=C/CN(C)C` yielded kinase still bound, per cent of control of 41

`Nc1ccc(-c2ccc3ncc4ccc(=O)n(-c5cccc(C(F)(F)F)c5)c4c3c2)cn1` yielded kinase still bound, per cent of control of 95

`C[C@@H](Oc1cc(-n2cnc3ccc(CN4CCN(C)CC4)cc32)sc1C(N)=O)c1ccccc1C(F)(F)F` yielded kinase still bound, per cent of control of 100
